quantity.measured: melting point

O=C1CCCN1C(=O)Oc1ccc(Cl)cc1 ... 99 to 100 °C
O=C(Cc1cccc(Br)c1)Nc1cccc(C(=O)NO)c1 ... 184 to 186 °C
CCOC(=O)CCCCOc1ccc(N2CCN(c3ccncc3)CC2)cc1 ... 79 to 82 °C
COc1cccc(-c2ccnc3c(C#N)cnn23)c1 ... 165 to 166 °C
COc1cc(NC(C)=O)ccc1OCC(O)CN1CCN(c2ccccc2F)CC1 (stereo not drawn) ... 144 °C

Please report melting point for every entry that follows.
1. CC(=O)N1CCCCc2ccc(C(=O)CCCl)cc21
2. Cc1c(CC=CN2CCN3c4cc(F)ccc4CCC3C2)cnn1-c1cc(N(C)C)nc(N)n1 (stereo not drawn)
3. c1ccc(CSc2nc3cc4c(cc3[nH]2)OCCO4)nc1
4. O=c1nc(N2CCC=C(c3ccccc3)C2)sc2ncccc12
5. COc1cc(-c2nc3ccc(OCCN4CCOCC4)cc3n2Cc2ccccc2C(F)(F)F)cc(OC)c1OC
6. CCOC(=O)c1nc(-c2ccc(Cl)cc2Cl)n(-c2ccc(Cl)cc2)c1CF
7. Clc1ccc2c(c1)C(c1ccccc1Cl)=CCc1nnc(Br)n1-2

["106 to 107 °C", "205 °C", "155 to 156 °C", "167 to 169 °C", "175 °C", "124 to 125 °C", "234 °C"]

Any idea what melting point was measured for CC(C)(C)C(NC(=O)c1ccc(Cl)cc1)Nc1c(Nc2ccc(F)cc2)c(=O)c1=O (stereo not drawn) ? 247 to 249 °C

* * *

So I've got a bunch of compounds here, and I need their melting point values.

Solved entries:
CNc1cc(NS(=O)(=O)c2ccc(C(C)(C)C)cc2)nc(NC)n1 ... 316 to 318 °C
CS(=O)(=O)c1ccc(-c2n[nH]c(C(F)(F)F)c2-c2ccc(F)cc2)cc1 ... 219 to 220 °C
CNC(=O)C(=NOCF)c1ccccc1Oc1ncnc(Oc2ccccc2Cl)c1F ... 128 to 129 °C
Cc1c(F)c(Oc2cccnc2)nc(Oc2cccc(C(=N)N)c2)c1F ... 213 to 214 °C

For each of the items listed, what is its melting point?
1. CC1(C)OC(=O)Nc2c(F)cc(-c3ccc(F)c(Cl)c3)cc21
2. COc1ccc(CC2CCN(C(=O)C(=O)Nc3ccc4c(c3)CC(=O)N4)CC2)cc1

1. 246 to 248 °C
2. 215 to 217 °C

* * *

quantity.measured: melting point

Some compounds with known melting point results, for comparison:
Nc1ccc(C(=O)c2ccccc2)cc1C=O ... 125 °C
Cc1nc2cccc(F)c2c(=O)n1C1CCC(=O)NC1=O (centres undefined) ... 275 to 277 °C

Dear colleague, could you please provide melting point for the compounds listed below?
1. O=c1c2ccccc2ccc2cc(CCO)ccc12
2. O=C1c2cc3ccc4c(c3c(-c3ccc5c(c3)OCO5)c2CN1CCCO)OCO4
3. CCCC1C=C2NC(=O)CC[C@]2(C)[C@H]2CC[C@]3(C)[C@@H]([C@H](C)CCCC(C)C)CC[C@H]3[C@H]12 (some centres undefined)

73 to 75 °C
213 to 215 °C
91 to 94 °C

Provide each entry's melting point from the list below.
1. Cc1ccc(OCCN2CCN(c3nc(N)nc(-c4cc(Cl)ccc4Cl)n3)CC2)cc1
2. NS(=O)(=O)c1cc(C(=O)O)cc([N+](=O)[O-])c1-c1ccccc1
3. CCOC(=O)[C@H](CSCc1ccc(C)c(C)c1)NC(=O)C(CSC(C)=O)Cc1ccccc1 (some centres undefined)
4. CC(=O)NC[C@H]1CN(c2ccc(N3CCN(C(=O)CCC(=O)c4ccc(Cl)cc4)CC3)c(F)c2)C(=O)O1
5. Nc1ncc(CCC2CCCC2)s1

1: 140 to 141 °C; 2: 119 to 121 °C; 3: 51 to 55 °C; 4: 208 to 209 °C; 5: 77 to 78 °C

Would you mind giving melting point for every compound in the list below?
1. CC(Cl)=Cc1ccc([N+](=O)[O-])o1
2. CC(C)(c1ccc(C(C)(C)c2ccc(O)cc2O)cc1)c1ccc(O)cc1O
3. CC1(C)Oc2ccc(C#N)cc2[C@@H](NC(=O)Nc2cccc(CC(=O)O)c2)[C@@H]1O
4. CCOC(=O)c1ccc(OCCC2CCN(c3ccc(C)nn3)CC2)s1

["55 to 65 °C", "110 to 115 °C", "135 to 138 °C", "114 °C"]

* * *

quantity.measured: melting point

Reference set, count: 3
Cc1cc(C)c(C(CO)c2ccc(C(C)C)cc2)c(O)c1 (centres undefined) ... 101 to 102 °C
CNC(=O)c1ncn2c(=O)n(CCCl)nnc12 ... 120 to 122 °C
CCSc1nc(C#N)c(C#N)nc1Cl ... 55 to 58.5 °C

--- query ---
State the recorded melting point for this entry: CC(C)(C(=O)c1cccnc1)c1ccc(Cl)cc1Cl 103 to 104 °C

* * *

Consider the following molecules; for each one, report its melting point.

These recorded examples may help you get a feel for the data.
COc1ccc2c(c1)CCC1C2CCC2(C)C1CCC2N(C=O)CCOCCO (configuration not stated) ... 134 to 135 °C
COc1cc2oc(=O)c(CCO)c(C)c2cc1O ... 229 to 235 °C
Nc1nc(NCCc2ccc(CCC3CCCCC3)cc2)nc2c1ncn2C1OC(CO)C(O)C1O (configuration not stated) ... 154 to 160 °C
COC(=O)c1cc(C(=O)NCCN2CCOCC2)cc(-n2cccc2)c1 ... 144 to 146 °C
COc1cccc(-c2c(Cl)c(CN3CCOCC3)nc3sc4c(c23)CCN(Cc2ccccc2)C4)c1OC ... 176 to 177 °C

Below are some molecules; for each one, tell me its melting point.
1. CC(C)C[C@H](NC(=O)[C@H](Cc1c[nH]cn1)NC(=O)[C@H](Cc1cccc2ccccc12)NC(=O)OCc1ccccc1)[C@@H](O)CC(N)=O
2. COc1ccc(CCCC(=O)NC(NC(Cc2ccccc2C)=NC#N)C(C)(C)C)cc1 (configuration not stated)
3. COc1ccccc1N1CCN(CCCOc2ccc(-c3cn4ccccc4n3)cc2)CC1
4. CNC(=S)NCCCCc1nc[nH]c1C
5. CCOC(=O)C=C(C)Nc1ccc(F)c(OCc2ccccc2)c1
6. OC(COc1ccc(-c2ccccc2I)cc1)CN1CCCC1 (configuration not stated)

1. 158 to 161 °C
2. 171 to 172 °C
3. 149 to 150 °C
4. 110 to 112 °C
5. 79 to 80 °C
6. 72 to 76 °C

Kindly give each listed record's melting point.
1. C[C@H]1CC[C@@H](OC(=O)c2nc(Cl)n3c2[C@@H]2CCCN2C(=O)c2ccccc2-3)CC1
2. CC(C)c1ccc(S(=O)(=O)n2c(C(O)c3cccc(C(=O)O)c3)cc3cc(Cl)ccc32)cc1 (configuration not stated)
3. CC(=O)OC1CSC(Oc2cncc(-c3cc4ccccc4o3)c2)C(OC(C)=O)C1OC(C)=O (configuration not stated)
4. CS(=O)(=O)c1ccc(-n2nccc2-c2ccc(Br)cc2)cc1F

1: 176 to 177 °C; 2: 97 °C; 3: 125 °C; 4: 155 to 156 °C

The following molecules each have a reported value; give each one's melting point.
1. Cc1nn(-c2ccc(C(F)(F)F)cn2)cc1COc1cc(C=O)n(C)n1
2. O=C1CCN(Cc2ncccc2O)CC1C(c1ccccc1)c1ccccc1 (configuration not stated)

1. 130 to 131 °C
2. 121 to 122 °C

* * *

quantity.measured: melting point

Cc1cccc(COc2cccnc2NC(=S)Nc2ccc(Cl)cc2)c1F ... 184 to 187 °C
O=S1(=O)NCNc2ccc(Br)cc21 ... 200 to 204 °C
Cc1c(C)c2c(c(C)c1N)CC(C)(C)O2 ... 110 °C
N[C@@H](Cc1ccc(F)cc1)[C@H](O)c1ccc(C(F)(F)F)cc1 (racemic) ... 130 to 131 °C
CCOC(=O)C(CC(=O)OC1CC2CCC1(C)C2(C)C)(NC(=O)OCc1ccccc1)C(N)=O (stereo not drawn) ... 105 to 106 °C
C1=Nc2c(cnc3ccccc23)OC12CCCCC2 ... 164 to 165 °C

I'm hoping you can list melting point for every compound here, please.
1. O=Cc1c(O)cccc1[N+](=O)[O-]
2. CCOC(=O)C1CN(c2ccccc2)C(=O)C1=O (stereo not drawn)
3. Cc1nnc(-c2cn3c4c(cccc24)CCC3)o1
4. CC(O)Cc1cc2c(cc1C(=NNc1ccc(Cl)nn1)c1ccc([N+](=O)[O-])cc1)OCO2 (stereo not drawn)
5. CN1CCc2ccn(S(=O)(=O)c3ccccc3)c2C(c2ccccc2)C1 (stereo not drawn)
6. CCOC(=O)c1cc2c(=O)n(-c3ccccc3)c3ccccc3n2c1
7. CCc1nc2c(-c3c(C)cc(C)cc3C)ncnc2n1Cc1ccccc1

1. 52 to 53 °C
2. 153 to 155 °C
3. 70 to 72 °C
4. 135 to 137 °C
5. 115 to 116 °C
6. 256 to 259 °C
7. 121 to 122 °C
